- Tested system: DNMT1 (human, UniProt P26358 1-1616)
- Sequence (P26358 whole entry): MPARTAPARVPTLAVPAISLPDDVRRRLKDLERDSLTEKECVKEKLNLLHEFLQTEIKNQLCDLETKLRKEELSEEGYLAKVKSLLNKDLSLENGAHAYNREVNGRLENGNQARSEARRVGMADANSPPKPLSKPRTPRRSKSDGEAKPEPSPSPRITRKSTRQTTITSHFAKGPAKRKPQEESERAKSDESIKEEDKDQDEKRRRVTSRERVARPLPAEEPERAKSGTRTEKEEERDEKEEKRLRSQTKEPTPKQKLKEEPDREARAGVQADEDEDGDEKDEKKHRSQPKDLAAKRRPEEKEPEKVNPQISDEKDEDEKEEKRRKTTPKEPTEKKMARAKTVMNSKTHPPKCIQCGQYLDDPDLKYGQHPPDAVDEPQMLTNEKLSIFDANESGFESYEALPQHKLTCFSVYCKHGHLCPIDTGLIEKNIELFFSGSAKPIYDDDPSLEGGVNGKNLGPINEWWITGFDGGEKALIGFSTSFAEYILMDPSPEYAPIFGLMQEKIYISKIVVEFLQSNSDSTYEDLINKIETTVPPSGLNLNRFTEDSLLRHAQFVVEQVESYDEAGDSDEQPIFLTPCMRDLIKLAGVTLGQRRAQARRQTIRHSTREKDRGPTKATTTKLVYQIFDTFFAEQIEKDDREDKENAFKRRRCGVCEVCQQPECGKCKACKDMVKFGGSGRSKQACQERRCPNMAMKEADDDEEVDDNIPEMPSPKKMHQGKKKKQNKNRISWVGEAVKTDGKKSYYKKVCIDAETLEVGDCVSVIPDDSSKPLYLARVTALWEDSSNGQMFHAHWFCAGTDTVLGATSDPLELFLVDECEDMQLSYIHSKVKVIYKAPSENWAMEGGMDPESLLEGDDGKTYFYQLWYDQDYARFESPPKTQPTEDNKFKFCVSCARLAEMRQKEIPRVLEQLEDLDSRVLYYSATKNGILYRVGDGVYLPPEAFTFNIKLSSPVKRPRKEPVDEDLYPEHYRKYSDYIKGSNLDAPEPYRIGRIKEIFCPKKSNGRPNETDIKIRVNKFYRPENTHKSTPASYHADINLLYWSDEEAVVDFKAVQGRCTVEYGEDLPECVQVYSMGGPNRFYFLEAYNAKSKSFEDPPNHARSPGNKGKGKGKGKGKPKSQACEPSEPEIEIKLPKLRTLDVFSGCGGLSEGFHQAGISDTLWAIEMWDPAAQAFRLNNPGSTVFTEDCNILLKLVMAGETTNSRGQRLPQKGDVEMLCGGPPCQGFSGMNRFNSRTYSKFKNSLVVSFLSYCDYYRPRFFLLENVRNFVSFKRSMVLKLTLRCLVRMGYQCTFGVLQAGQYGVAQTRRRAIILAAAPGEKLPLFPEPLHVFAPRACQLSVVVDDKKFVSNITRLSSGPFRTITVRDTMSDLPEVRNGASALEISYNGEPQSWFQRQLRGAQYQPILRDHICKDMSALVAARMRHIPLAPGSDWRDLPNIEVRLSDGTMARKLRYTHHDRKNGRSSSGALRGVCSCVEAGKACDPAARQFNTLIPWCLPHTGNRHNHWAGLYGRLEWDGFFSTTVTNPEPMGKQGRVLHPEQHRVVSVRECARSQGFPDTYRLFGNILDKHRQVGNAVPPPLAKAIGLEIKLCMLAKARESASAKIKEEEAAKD
- Experimental protocol: EMSA; 100 mM KCl; 50 mM Tris-HCl pH 7.5, 100 mM KCl (or LiCl), 2.5 mM MgCl2, 0.1 mM ZnCl2, 2 mM BME, 0.05% NP40, 5% glycerol, 0.1 mg/mL BSA, 0.1 mg/mL yeast tRNA; 30 C 1 h; 1% agarose gel in 1x TBE at 4 C
- Setup conditions: protein: recombinant; tags: MBP tag cleaved with PreScission protease; label: 5' 32P; pUG-fold (noncanonical G4) in K+
Quantity: pKd
Units for pKd: none; it is -log10 of a concentration expressed in mol/L.

// recorded pKd for GUGUGUGUGUGUGUGUGUGUGUGUGUGUGUGUGUGUGUGU (structured_RNA) [(GU)20] : 7.16
